Tested on: NCI-H226 lung
Assay: NCI-60 one-dose screen, 48 h (100 = growth as untreated, 0 = no growth, -100 = all killed)
Conditions: 10 µM unless noted
The panel holds about 83,000 compounds, 20% with a hit somewhere; the sample as a whole holds those more often.
Consider the following compounds and their measured growth readings.
observation_type: growth (%)

- given_smiles: "C#Cc1ccc(NC(=O)Cc2ccc(/C=C/C(=O)c3nccn3C)cc2)cc1"
  target_or_system: "NCI-H226 lung"
  observation_type: "growth"
  test_result: 90.6
- given_smiles: "COc1ccc(-c2nc(SCCC(C)C)nc(N/N=C(/C)c3ccc(N)cc3)c2C#N)cc1"
  target_or_system: "NCI-H226 lung"
  observation_type: "growth"
  test_result: 88.9
- given_smiles: "CC(C)(C)CC(C)(C)Nc1c(-c2c(O)c3ccccc3oc2=O)nc2sccn12"
  target_or_system: "NCI-H226 lung"
  observation_type: "growth"
  test_result: 88.9
